src = patent US8623846B2

test system: Male beagle dogs; test: canine telemetry protocol, blood pressure reduction efficacy; type: in vivo; conditions: pulse pressure, change from baseline; 3 mg/kg oral gavage; 6-12 h
Can you tell me ΔPP (mm Hg) 6-12 h for the items I'm about to list?
Report as a plain number; the unit mm Hg is understood.

Lab request: please report ΔPP (mm Hg) 6-12 h under test system Male beagle dogs for CCCCN(/[N+]([O-])=N/O[C@H]1CC[C@H](C(=O)O)CC1)C(C)(C)C −15

Lab request: please report ΔPP (mm Hg) 6-12 h under test system Male beagle dogs for CN(/[N+]([O-])=N/O[C@H]1CC[C@H](C(=O)O)CC1)C(C)(C)C −4

Lab request: please report ΔPP (mm Hg) 6-12 h under test system Male beagle dogs for CN(/[N+]([O-])=N/O[C@H]1CC[C@@H](C(=O)O)CC1)C(C)(C)C −8

Lab request: please report ΔPP (mm Hg) 6-12 h under test system Male beagle dogs for CCN(/[N+]([O-])=N/O[C@H]1CC[C@H](C(=O)O)CC1)C(C)(C)C −9

Lab request: please report ΔPP (mm Hg) 6-12 h under test system Male beagle dogs for CCN(/[N+]([O-])=N/O[C@H]1CC[C@@H](C(=O)O)CC1)C(C)(C)C −6
